Where do these numbers come from? They come from paper PMC8973283.

protocol: First-in-human PET/CT in advanced NSCLC patients: tumor uptake and biodistribution
applied-conditions: human, tumor, iv, SUVmax of tumor before treatment, patient 1, PD-L1 TPS 8%
property-measured: SUV (SUV)
Give the value in SUV but do not write SUV after it.

input: Entry CCCC[C@H]1C(=O)N(C)[C@@H](CCCC)C(=O)N[C@@H](CCCNC(=O)CN2CCN(CC(=O)O)CCN(CC(=O)O)CC2)C(=O)N[C@H](C(=O)NCC(N)=O)CSCC(=O)N[C@@H](Cc2ccc(O)cc2)C(=O)N(C)[C@@H](C)C(=O)N[C@@H](CC(N)=O)C(=O)N2CCC[C@H]2C(=O)N[C@@H](Cc2c[nH]cn2)C(=O)N[C@@H](CC(C)C)C(=O)N2C[C@H](O)C[C@H]2C(=O)N[C@@H](Cc2c[nH]c3ccccc23)C(=O)N[C@@H](CO)C(=O)N[C@@H](Cc2cn(C)c3ccccc23)C(=O)N1C [^68Ga-NOTA-WL12, metal not drawn] : reported SUV = ?
output: 2.21

====

protocol: First-in-human PET/CT in advanced NSCLC patients: tumor uptake and biodistribution
applied-conditions: human, blood pool, iv, SUVmax of blood pool (BP), patient 3, before therapy
property-measured: SUV
Could you kindly put the unit after your number?

input: Entry CCCC[C@H]1C(=O)N(C)[C@@H](CCCC)C(=O)N[C@@H](CCCNC(=O)CN2CCN(CC(=O)O)CCN(CC(=O)O)CC2)C(=O)N[C@H](C(=O)NCC(N)=O)CSCC(=O)N[C@@H](Cc2ccc(O)cc2)C(=O)N(C)[C@@H](C)C(=O)N[C@@H](CC(N)=O)C(=O)N2CCC[C@H]2C(=O)N[C@@H](Cc2c[nH]cn2)C(=O)N[C@@H](CC(C)C)C(=O)N2C[C@H](O)C[C@H]2C(=O)N[C@@H](Cc2c[nH]c3ccccc23)C(=O)N[C@@H](CO)C(=O)N[C@@H](Cc2cn(C)c3ccccc23)C(=O)N1C [^68Ga-NOTA-WL12, metal not drawn] : reported SUV = ?
output: 1.78 SUV
